molecular target: T1, mouse DLL4 expressed on CHO cells (mouse, UniProt Q9JI71 27-686); test: FACS on CHO-mDLL4 cells
T1 construct: whole, on cells; also called mDLL4; CHO-mDLL4
T1 sequence (Q9JI71 27-686): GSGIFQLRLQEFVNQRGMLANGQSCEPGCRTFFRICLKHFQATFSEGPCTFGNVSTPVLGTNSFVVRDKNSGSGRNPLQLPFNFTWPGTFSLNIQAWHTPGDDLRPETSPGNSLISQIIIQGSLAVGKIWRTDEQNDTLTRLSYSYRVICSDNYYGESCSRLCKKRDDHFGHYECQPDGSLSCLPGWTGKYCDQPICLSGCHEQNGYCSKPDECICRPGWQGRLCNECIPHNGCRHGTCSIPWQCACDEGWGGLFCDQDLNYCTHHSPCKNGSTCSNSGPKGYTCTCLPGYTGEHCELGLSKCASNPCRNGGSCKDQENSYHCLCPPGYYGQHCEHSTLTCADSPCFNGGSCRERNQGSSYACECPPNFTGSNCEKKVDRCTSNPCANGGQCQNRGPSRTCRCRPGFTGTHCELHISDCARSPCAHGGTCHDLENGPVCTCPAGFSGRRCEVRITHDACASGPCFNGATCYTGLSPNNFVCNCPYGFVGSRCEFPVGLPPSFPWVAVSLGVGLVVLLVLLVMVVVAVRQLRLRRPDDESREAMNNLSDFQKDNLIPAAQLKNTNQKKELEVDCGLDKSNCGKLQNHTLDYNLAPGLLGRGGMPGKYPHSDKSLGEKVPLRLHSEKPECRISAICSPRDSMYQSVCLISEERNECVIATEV

binder: DLLBII129D08 (VHH, not shown: small tags and cut ends) VHH: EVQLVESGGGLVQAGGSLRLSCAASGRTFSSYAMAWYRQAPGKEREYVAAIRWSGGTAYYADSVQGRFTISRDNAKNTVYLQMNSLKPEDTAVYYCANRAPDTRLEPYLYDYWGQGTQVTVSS
EC50 / nM: 3.7
//
binder: DLLBII136C07 (VHH, not shown: small tags and cut ends) VHH: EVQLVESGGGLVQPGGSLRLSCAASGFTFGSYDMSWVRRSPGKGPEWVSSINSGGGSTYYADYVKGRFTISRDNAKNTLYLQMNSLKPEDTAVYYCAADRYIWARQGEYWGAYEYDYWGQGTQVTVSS
EC50 / nM: 8.3
//
binder: DLLBII129B05 (VHH, not shown: small tags and cut ends) VHH: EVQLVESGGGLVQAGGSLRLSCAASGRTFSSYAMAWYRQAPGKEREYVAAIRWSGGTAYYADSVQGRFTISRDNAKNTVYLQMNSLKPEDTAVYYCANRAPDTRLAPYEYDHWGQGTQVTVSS
EC50 / nM: 3.9
//
binder: DLLBII133A09 (VHH, not shown: small tags and cut ends) VHH: EVQLVESGGGLVQPGGSLRLSCAASGFTFGSYDMSWVRRSPGKGPEWVSAINSGGGSTYYADYVKGRFTISRDNAKNTLYLQMNSLKPEDTAVYYCAADRYIWARQGEYWGAYAYDYWGQGTQVTVSS
EC50 / nM: 1.7
